Reported relative viability values for a set of molecules
Tested on: NCI-H460
Experiment: relative viability (nuclei count vs DMSO), 5 days (fraction); higher = more cells survive
Settings: first compound 0.6325 µM
value-type: relative viability

INSERT INTO measurements (molecule, value_type, value_observed) VALUES
  ('Cc1csc(=NC2CCCCC2)n1/N=C/c1ccc(O)c(O)c1O [MIM1] + Cc1nc(NC(=O)N2CCC[C@H]2C(N)=O)sc1-c1ccnc(C(C)(C)C(F)(F)F)c1 [Alpelisib] (partner 2 µM)', 'relative viability', 0.549),
  ('CN1CCN(CCOc2cc(OC3CCOCC3)c3c(Nc4c(Cl)ccc5c4OCO5)ncnc3c2)CC1 [Saracatinib] + C[C@@H](Oc1cc(-c2cnn(C3CCNCC3)c2)cnc1N)c1c(Cl)ccc(F)c1Cl [Crizotinib] (partner 1 µM)', 'relative viability', 0.696);

* * *

System: NCI-H2009
Assay: relative viability (nuclei count vs DMSO), 5 days (fraction); higher = more cells survive
Settings: first compound 0.2 µM
Entries whose relative viability is below 0.5 take TRUE; entries at or above 0.5 take FALSE.

INSERT INTO assay_data (molecule, group) VALUES
  ('CCNC(=O)c1noc(-c2cc(C(C)C)c(O)cc2O)c1-c1ccc(CN2CCOCC2)cc1 [Luminespib] + Nc1ncn([C@H]2C[C@H](O)[C@@H](CO)O2)c(=O)n1 [Decitabine] (partner 2 µM)', 'TRUE'),
  ('CCNC(=O)c1noc(-c2cc(C(C)C)c(O)cc2O)c1-c1ccc(CN2CCOCC2)cc1 [Luminespib] + COc1cccc2cc(-c3nc([C@H]4CC[C@H](C(=O)O)CC4)n4ncnc(N)c34)[nH]c12 [OSI-027] (partner 0.5 µM)', 'TRUE'),
  ('CN1CCN(CCOc2cc(OC3CCOCC3)c3c(Nc4c(Cl)ccc5c4OCO5)ncnc3c2)CC1 [Saracatinib] + O=C(c1cc(Cc2n[nH]c(=O)c3ccccc23)ccc1F)N1CCN(C(=O)C2CC2)CC1 [Olaparib] (partner 8 µM)', 'TRUE'),
  ('CN1CCN(CCOc2cc(OC3CCOCC3)c3c(Nc4c(Cl)ccc5c4OCO5)ncnc3c2)CC1 [Saracatinib] + CC(C)C[C@H](NC(=O)[C@H](Cc1ccccc1)NC(=O)c1cnccn1)B(O)O [Bortezomib] (partner 0.002 µM)', 'FALSE'),
  ('Cc1csc(=NC2CCCCC2)n1/N=C/c1ccc(O)c(O)c1O [MIM1] + C[C@@H](Oc1cc(-c2cnn(C3CCNCC3)c2)cnc1N)c1c(Cl)ccc(F)c1Cl [Crizotinib] (partner 1 µM)', 'FALSE');

* * *

System: NCI-H2347
Test: relative viability (nuclei count vs DMSO), 5 days (fraction); higher = more cells survive
Settings: first compound 0.6325 µM
Catalogue of relative viability values
value-type: relative viability

INSERT INTO measurements (compound, value_observed) VALUES
  ('CN1CCN(CCOc2cc(OC3CCOCC3)c3c(Nc4c(Cl)ccc5c4OCO5)ncnc3c2)CC1 [Saracatinib] + O=C(c1cc(Cc2n[nH]c(=O)c3ccccc23)ccc1F)N1CCN(C(=O)C2CC2)CC1 [Olaparib] (partner 8 µM)', 0.622),
  ('Cc1csc(=NC2CCCCC2)n1/N=C/c1ccc(O)c(O)c1O [MIM1] + COc1cc2c(Oc3ccc(NC(=O)C4(C(=O)Nc5ccc(F)cc5)CC4)cc3F)ccnc2cc1OCCCN1CCOCC1 [Foretinib] (partner 0.25 µM)', 0.568),
  ('CN1CCN(CCOc2cc(OC3CCOCC3)c3c(Nc4c(Cl)ccc5c4OCO5)ncnc3c2)CC1 [Saracatinib] + COc1cccc2cc(-c3nc([C@H]4CC[C@H](C(=O)O)CC4)n4ncnc(N)c34)[nH]c12 [OSI-027] (partner 0.5 µM)', 0.406),
  ('CN1CCN(CCOc2cc(OC3CCOCC3)c3c(Nc4c(Cl)ccc5c4OCO5)ncnc3c2)CC1 [Saracatinib] + CC(C)C[C@H](NC(=O)[C@H](Cc1ccccc1)NC(=O)c1cnccn1)B(O)O [Bortezomib] (partner 0.002 µM)', 1.2);

* * *

Tested on: NCI-H520
Test: relative viability (nuclei count vs DMSO), 5 days (fraction); higher = more cells survive
Details: first compound 0.1 µM
Entries whose relative viability is below 0.4 take t; entries at or above 0.4 take f.

INSERT INTO assay_data (molecule, group) VALUES
  ('Cc1cn(-c2cc(NC(=O)c3ccc(C)c(Nc4nccc(-c5cccnc5)n4)c3)cc(C(F)(F)F)c2)cn1 [Nilotinib] + Cc1cc(Nc2cc(N3CCN(C)CC3)nc(Sc3ccc(NC(=O)C4CC4)cc3)n2)n[nH]1 [Tozasertib] (partner 0.1 µM)', 't'),
  ('Cc1cn(-c2cc(NC(=O)c3ccc(C)c(Nc4nccc(-c5cccnc5)n4)c3)cc(C(F)(F)F)c2)cn1 [Nilotinib] + CS(=O)(=O)CCNCc1ccc(-c2ccc3ncnc(Nc4ccc(OCc5cccc(F)c5)c(Cl)c4)c3c2)o1 [Lapatinib] (partner 2 µM)', 't'),
  ('Cc1cn(-c2cc(NC(=O)c3ccc(C)c(Nc4nccc(-c5cccnc5)n4)c3)cc(C(F)(F)F)c2)cn1 [Nilotinib] + CS(=O)(=O)N1CCN(Cc2cc3nc(-c4cccc5[nH]ncc45)nc(N4CCOCC4)c3s2)CC1 [Pictilisib] (partner 1 µM)', 't'),
  ('Cc1cn(-c2cc(NC(=O)c3ccc(C)c(Nc4nccc(-c5cccnc5)n4)c3)cc(C(F)(F)F)c2)cn1 [Nilotinib] + O=C(c1cc(Cc2n[nH]c(=O)c3ccccc23)ccc1F)N1CCN(C(=O)C2CC2)CC1 [Olaparib] (partner 8 µM)', 't'),
  ('Cc1cn(-c2cc(NC(=O)c3ccc(C)c(Nc4nccc(-c5cccnc5)n4)c3)cc(C(F)(F)F)c2)cn1 [Nilotinib] + N=C(N)NC(=N)NCCc1ccccc1 [Phenformin] (partner 250 µM)', 'f'),
  ('Cc1cn(-c2cc(NC(=O)c3ccc(C)c(Nc4nccc(-c5cccnc5)n4)c3)cc(C(F)(F)F)c2)cn1 [Nilotinib] + CC1(C)CCC(c2ccc(Cl)cc2)=C(CN2CCN(c3ccc(C(=O)NS(=O)(=O)c4ccc(N[C@H](CCN5CCOCC5)CSc5ccccc5)c(S(=O)(=O)C(F)(F)F)c4)cc3)CC2)C1 [Navitoclax] (partner 0.5 µM)', 'f');

* * *

Test system: NCI-H1993
Assay: relative viability (nuclei count vs DMSO), 5 days (fraction); higher = more cells survive
Settings: first compound 0.02 µM
Measured relative viability, listed per entry.
value-type: relative viability

INSERT INTO results (compound, value_type, value_observed) VALUES
  ('CCNC(=O)c1noc(-c2cc(C(C)C)c(O)cc2O)c1-c1ccc(CN2CCOCC2)cc1 [Luminespib] + Nc1nc2[nH]cc(CCc3ccc(C(=O)N[C@@H](CCC(=O)O)C(=O)O)cc3)c2c(=O)[nH]1 [Pemetrexed] (partner 0.2 µM)', 'relative viability', 0.557),
  ('CN1CCN(CCOc2cc(OC3CCOCC3)c3c(Nc4c(Cl)ccc5c4OCO5)ncnc3c2)CC1 [Saracatinib] + O=C(c1cc(Cc2n[nH]c(=O)c3ccccc23)ccc1F)N1CCN(C(=O)C2CC2)CC1 [Olaparib] (partner 8 µM)', 'relative viability', 1.03),
  ('CN1CCN(CCOc2cc(OC3CCOCC3)c3c(Nc4c(Cl)ccc5c4OCO5)ncnc3c2)CC1 [Saracatinib] + N=C(N)NC(=N)NCCc1ccccc1 [Phenformin] (partner 250 µM)', 'relative viability', 0.524);

* * *

Tested on: NCI-H661
Experiment: relative viability (nuclei count vs DMSO), 5 days (fraction); higher = more cells survive
Settings: first compound 0.06325 µM
Known relative viability of a selection of molecules
value-type: relative viability

INSERT INTO results (molecule, value_type, value_observed) VALUES
  ('CCNC(=O)c1noc(-c2cc(C(C)C)c(O)cc2O)c1-c1ccc(CN2CCOCC2)cc1 [Luminespib] + C[C@@H](Oc1cc(-c2cnn(C3CCNCC3)c2)cnc1N)c1c(Cl)ccc(F)c1Cl [Crizotinib] (partner 1 µM)', 'relative viability', 0.939),
  ('CCNC(=O)c1noc(-c2cc(C(C)C)c(O)cc2O)c1-c1ccc(CN2CCOCC2)cc1 [Luminespib] + Nc1ncn([C@H]2C[C@H](O)[C@@H](CO)O2)c(=O)n1 [Decitabine] (partner 2 µM)', 'relative viability', 0.315);

* * *

Parameter relative viability: see the listing below.
Test system: NCI-H1650
Test: relative viability (nuclei count vs DMSO), 5 days (fraction); higher = more cells survive
Details: first compound 2 µM
value-type: relative viability

INSERT INTO results (compound, tgt, value_observed) VALUES
  ('CN1CCN(CCOc2cc(OC3CCOCC3)c3c(Nc4c(Cl)ccc5c4OCO5)ncnc3c2)CC1 [Saracatinib] + C[C@@H](Oc1cc(-c2cnn(C3CCNCC3)c2)cnc1N)c1c(Cl)ccc(F)c1Cl [Crizotinib] (partner 1 µM)', 'NCI-H1650', 0.413),
  ('Cc1csc(=NC2CCCCC2)n1/N=C/c1ccc(O)c(O)c1O [MIM1] + Cc1nc(Nc2ncc(C(=O)Nc3c(C)cccc3Cl)s2)cc(N2CCN(CCO)CC2)n1 [Dasatinib] (partner 0.075 µM)', 'NCI-H1650', 0.24),
  ('Cc1csc(=NC2CCCCC2)n1/N=C/c1ccc(O)c(O)c1O [MIM1] + COc1cc2c(Oc3ccc(NC(=O)C4(C(=O)Nc5ccc(F)cc5)CC4)cc3F)ccnc2cc1OCCCN1CCOCC1 [Foretinib] (partner 0.25 µM)', 'NCI-H1650', 0.832),
  ('CN1CCN(CCOc2cc(OC3CCOCC3)c3c(Nc4c(Cl)ccc5c4OCO5)ncnc3c2)CC1 [Saracatinib] + CC(=O)c1c(C)c2cnc(Nc3ccc(N4CCNCC4)cn3)nc2n(C2CCCC2)c1=O [Palbociclib] (partner 0.5 µM)', 'NCI-H1650', 0.159);

These measurements were taken from the supplement of paper PMC10307832.
